Provide the recorded log10(GI50) for the entries that follow.
# Tested on: NCI-H1048 cells
# measurement description: MTT proliferation assay, NCI-H1048;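 note: Dose-response in 96-well plates over 8 or 10 concentration points, with exposure spanning 3-4 cell doublings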
# Format: cell-based
# test settings: 5 days compound exposure, 1:3 serial dilution starting at 10 μM
*1 amine or outer side, *2 acyl side, *3 side chain or, on linkers, in order; H or OH if unused. Where a SMILES comes first, the peptide text is derived from it. Bridges are numbered along the chain shown (N, C = ends). [ ]: non-standard residue; d: D form. The star is where a group is joined. NMePhe(2-(4-MorPh),5-Cl) = CN[C@@H](Cc1cc(Cl)ccc1-c1ccc(N2CCOCC2)cc1)C(=O)O; X127 = CN([C@@H](Cc1cc(F)ccc1-c1cnn(S(=O)(=O)C2CC2)c1)C(=O)[*:2])[*:1]; NMeAla(5-Cl-2-cPrO-3-pyridyl) = CN[C@@H](Cc1cc(Cl)cnc1OC1CC1)C(=O)O; X105 = CN([C@@H](Cc1cc(Cl)ccc1-c1cnn(C2CCOC2)c1)C(=O)[*:2])[*:1]; X147 = CCSc1ccc(-c2ccc(Cl)cc2C[C@@H](C(=O)[*:2])N(C)[*:1])cn1; X68 = CN([C@@H](Cc1cc(Cl)ccc1-c1cnn(C2CC2)c1)C(=O)[*:2])[*:1]; NMehhhLys(Me) = CN([C@@H](CCCCCCCN(C)[*:3])C(=O)[*:2])[*:1]; Oxane2carbonyl(2R-CF3) = O=C([C@@]1(C(F)(F)F)CCCCO1)*; cBuCO(3,3-F2-1-CF3) = O=C(C1(C(F)(F)F)CC(F)(F)C1)*; Pro(trans-4-F) = O=C(O)[C@@H]1C[C@@H](F)CN1; Pivaloyl(3,3,3-F3) = CC(C)(C(=O)*)C(F)(F)F; Gly(cPr) = N[C@H](C(=O)O)C1CC1; X65 = CC1(C(=O)*)CC(F)(F)C1
Hey, these are logged values: log10 of GI50, nM being the unit before logging.

Req: Identify measured log10(GI50) corresponding to CC(C)C[C@@H]1NC(=O)[C@@H](N(C)C(=O)[C@@H](NC(=O)[C@@H]2C[C@@H](F)CN2C(=O)C2(C(F)(F)F)CC(F)(F)C2)C2CC2)CCCCCCCN(C)C(=O)[C@H](Cc2cc(Cl)cnc2OC2CC2)N(C)C1=O [Example 105] ({cBuCO(3,3-F2-1-CF3)}-[Pro(trans-4-F)][Gly(cPr)][NMehhhLys(Me)]L[NMeAla(5-Cl-2-cPrO-3-pyridyl)]; lactam 3-C)
Resp: 1.30

Req: Identify measured log10(GI50) corresponding to CC(C)C[C@@H]1NC(=O)[C@@H](N(C)C(=O)[C@@H](NC(=O)[C@@H]2C[C@@H](F)CN2C(=O)C2(C(F)(F)F)CC(F)(F)C2)C2CC2)CC=CCCCCNC(=O)[C@H](Cc2cc(Cl)ccc2C2=CCN(C)CC2)N(C)C1=O (single isomer, unassigned) [Example 56-P2]
Resp: 2.28

Req: Identify measured log10(GI50) corresponding to CCSc1ccc(-c2ccc(Cl)cc2C[C@H]2C(=O)N(C)CCCCCCC[C@H](N(C)C(=O)[C@@H](NC(=O)[C@@H]3C[C@@H](F)CN3C(=O)C3(C(F)(F)F)CC(F)(F)C3)C3CC3)C(=O)N[C@@H](CC(C)C)C(=O)N2C)cn1 [Example 181] ({cBuCO(3,3-F2-1-CF3)}-[Pro(trans-4-F)][Gly(cPr)][NMehhhLys(Me)]L[X147]; lactam 3-C)
Resp: 2.38

Req: Identify measured log10(GI50) corresponding to CC(C)C[C@@H]1NC(=O)[C@@H](N(C)C(=O)[C@@H](NC(=O)[C@@H]2C[C@@H](F)CN2C(=O)C2(C(F)(F)F)CC(F)(F)C2)C2CC2)CC=CCCCCNC(=O)[C@H](Cc2cc(Cl)ccc2Cl)N(C)C1=O (single isomer, unassigned) [Example 6-P2]
Resp: 1.60

Req: Identify measured log10(GI50) corresponding to CC(C)C[C@@H]1NC(=O)[C@@H](N(C)C(=O)[C@@H](NC(=O)[C@@H]2C[C@@H](F)CN2C(=O)C2(C(F)(F)F)CC(F)(F)C2)C2CC2)CCCCCCCN(C)C(=O)[C@H](Cc2cc(Cl)ccc2-c2cnn(C3CC3)c2)N(C)C1=O [Example 110] ({cBuCO(3,3-F2-1-CF3)}-[Pro(trans-4-F)][Gly(cPr)][NMehhhLys(Me)]L[X68]; lactam 3-C)
Resp: 1.00

Req: Identify measured log10(GI50) corresponding to CC(C)C[C@@H]1NC(=O)[C@@H](N(C)C(=O)[C@@H](NC(=O)[C@@H]2C[C@@H](F)CN2C(=O)C2(C(F)(F)F)CC(F)(F)C2)C2CC2)CCCCCCCN(C)C(=O)[C@H](Cc2cc(Cl)ccc2-c2cnn(C3CCOC3)c2)N(C)C1=O (stereo partly drawn) [Example 113] ({cBuCO(3,3-F2-1-CF3)}-[Pro(trans-4-F)][Gly(cPr)][NMehhhLys(Me)]L[X105]; lactam 3-C)
Resp: 1.00

Req: Identify measured log10(GI50) corresponding to CC(=O)N1CC=C(c2ccc(Cl)cc2C[C@H]2C(=O)N(C)CCCCC=CC[C@H](N(C)C(=O)[C@@H](NC(=O)[C@@H]3C[C@@H](F)CN3C(=O)C3(C(F)(F)F)CCC3)C3CC3)C(=O)N[C@@H](CC(C)C)C(=O)N2C)CC1
Resp: 2.04

Req: Identify measured log10(GI50) corresponding to Cc1nnc(-c2ccc(Cl)cc2C[C@H]2C(=O)NCCCCC=CC[C@H](N(C)C(=O)[C@@H](NC(=O)[C@@H]3C[C@@H](F)CN3C(=O)C3(C(F)(F)F)CCC3)C3CC3)C(=O)N[C@@H](CC(C)C)C(=O)N2C)o1 (single isomer, unassigned) [Example 117-P1]
Resp: 2.36

Req: Identify measured log10(GI50) corresponding to CC(C)C[C@@H]1NC(=O)[C@@H](N(C)C(=O)[C@@H](NC(=O)[C@@H]2C[C@@H](F)CN2C(=O)C2(C)CC(F)(F)C2)C2CC2)CCCCCCCN(C)C(=O)[C@H](Cc2cc(Cl)ccc2-c2ccc(N3CCOCC3)cc2)N(C)C1=O [Example 365] (X65-[Pro(trans-4-F)][Gly(cPr)][NMehhhLys(Me)]L[NMePhe(2-(4-MorPh),5-Cl)]; lactam 3-C)
Resp: 1.00

Req: Identify measured log10(GI50) corresponding to CC(C)C[C@@H]1NC(=O)[C@@H](N(C)C(=O)[C@@H](NC(=O)[C@@H]2C[C@@H](F)CN2C(=O)C(C)(C)C(F)(F)F)C2CC2)CCCCCCCN(C)C(=O)[C@H](Cc2cc(Cl)ccc2-c2ccc(N3CCOCC3)cc2)N(C)C1=O [Example 335] ({Pivaloyl(3,3,3-F3)}-[Pro(trans-4-F)][Gly(cPr)][NMehhhLys(Me)]L[NMePhe(2-(4-MorPh),5-Cl)]; lactam 3-C)
Resp: 1.00

Req: Identify measured log10(GI50) corresponding to CC(C)C[C@@H]1NC(=O)[C@@H](N(C)C(=O)[C@@H](NC(=O)[C@@H]2C[C@@H](F)CN2C(=O)[C@@]2(C(F)(F)F)CCCCO2)C2CC2)CCCCCCCN(C)C(=O)[C@H](Cc2cc(F)ccc2-c2cnn(S(=O)(=O)C3CC3)c2)N(C)C1=O [Example 282] ({Oxane2carbonyl(2R-CF3)}-[Pro(trans-4-F)][Gly(cPr)][NMehhhLys(Me)]L[X127]; lactam 3-C)
Resp: 1.00

Req: Identify measured log10(GI50) corresponding to CC(C)C[C@@H]1NC(=O)[C@@H](N(C)C(=O)[C@@H](NC(=O)[C@@H]2C[C@@H](F)CN2C(=O)C2(C(F)(F)F)CC(F)(F)C2)C2CC2)CC=CCCCCNC(=O)[C@H](Cc2cc(Cl)ccc2C2=CCC(F)(F)CC2)N(C)C1=O
Resp: 3.04
